These entries and their values trace back to patent US20250388591A1.

subject-of-test: MAT2A (Homo sapiens, UniProt P31153)
Construct: purchased BPS Bioscience
Sequence (P31153 whole entry): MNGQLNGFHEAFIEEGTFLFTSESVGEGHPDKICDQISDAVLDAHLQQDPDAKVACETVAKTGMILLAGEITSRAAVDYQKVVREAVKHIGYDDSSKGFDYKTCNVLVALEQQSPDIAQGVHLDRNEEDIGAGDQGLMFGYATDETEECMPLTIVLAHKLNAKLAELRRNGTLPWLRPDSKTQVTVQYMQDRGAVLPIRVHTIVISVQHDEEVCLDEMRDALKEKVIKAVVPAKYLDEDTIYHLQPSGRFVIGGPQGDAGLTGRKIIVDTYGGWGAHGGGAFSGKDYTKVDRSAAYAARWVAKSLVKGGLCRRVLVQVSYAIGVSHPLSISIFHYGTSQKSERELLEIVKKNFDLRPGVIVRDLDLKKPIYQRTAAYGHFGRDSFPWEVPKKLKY
test-protocol: MAT2A enzymatic assay (MAT2A Inhibitor Enzymatic Screening Kit)
Format: biochemical
conditions-used: MAT2A enzyme, colorimetric detection at 630 nm; read-out: Inhibitory activity against Enzyme (IC50: nM)
Item-by-item account of IC50

The following molecules have reported results that may help.
Cc1ncccc1-n1c(=O)nc2c3c(cc(C(F)(F)F)nc31)CN2C	> 100 nM
CN1Cc2cc(C(F)(F)F)nc3c2c1nc(=O)n3-c1cccnc1Cl	> 100 nM
Cc1ncccc1-n1c(=O)nc2c3c(cc(Cl)cc31)CCCN2	> 100 nM

Entry `Cc1ncccc1-n1c(=O)nc2c3c(cc(Cl)cc31)CN2C` — recorded IC50 = ≤ 50 nM

Entry `Cc1ncccc1-n1c(=O)nc2c3c(cc(Cl)cc31)OCCN2` — recorded IC50 = > 100 nM

---

subject-of-test: MAT2A (Homo sapiens, UniProt P31153)
Construct: purchased BPS Bioscience
test-protocol: MAT2A enzymatic assay (MAT2A Inhibitor Enzymatic Screening Kit)
Format: biochemical
conditions-used: MAT2A enzyme, colorimetric detection at 630 nm; read-out: Inhibitory activity against Enzyme (IC50: nM)
measured-attribute: IC50

Cc1ncccc1-n1c(=O)nc2c3c(cc(Cl)cc31)CN2c1ccc2nn(C)cc2c1	≤ 50 nM

Entry CN1Cc2cc(Cl)cc3c2c1nc(=O)n3-c1cccnc1Cl [Compound A16] — recorded IC50 = ≤ 50 nM

Entry `Cc1ncccc1-n1c(=O)nc2c3c(cc(Cl)cc31)CN2c1ccccc1` — recorded IC50 = ≤ 50 nM

Entry `Cc1ncccc1-n1c(=O)nc2c3c(cc(C(F)(F)F)nc31)CCN2C` — recorded IC50 = ≤ 50 nM

Entry `COc1ncccc1-n1c(=O)nc2c3c(cc(Cl)cc31)CN2C` — recorded IC50 = 50 to 100 nM

Entry CN1Cc2cc(Cl)cc3c2c1nc(=O)n3-c1cccnc1Cl (single isomer, unassigned) [Compound A16-P2] — recorded IC50 = ≤ 50 nM

Entry `Cc1ncccc1-n1c(=O)nc2c3c(cc(Cl)cc31)CN2` — recorded IC50 = ≤ 50 nM

Entry Cc1ncccc1-n1c(=O)nc2c3c(cc(Cl)cc31)NCC(O)N2C (stereo not drawn) — recorded IC50 = 50 to 100 nM

Entry `Cc1ncccc1-n1c(=O)nc2c3c(cc(Cl)cc31)CN2c1ccc(Cl)cc1` — recorded IC50 = ≤ 50 nM
